These entries and their values trace back to patent US20110165161A1.

Biological target: T1, human EpCAM (epithelial cell adhesion/activating molecule) (human, UniProt P16422 24-314)
T1 sequence: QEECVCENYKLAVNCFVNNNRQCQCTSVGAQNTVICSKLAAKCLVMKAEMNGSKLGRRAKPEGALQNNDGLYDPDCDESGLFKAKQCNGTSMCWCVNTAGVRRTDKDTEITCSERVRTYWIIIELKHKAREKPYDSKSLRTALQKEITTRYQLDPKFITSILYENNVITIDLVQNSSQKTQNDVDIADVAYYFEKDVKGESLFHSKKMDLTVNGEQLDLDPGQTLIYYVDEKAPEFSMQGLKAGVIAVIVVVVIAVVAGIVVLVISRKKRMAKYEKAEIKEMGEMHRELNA
Test: cell-based or functional assay
quantity_kind: % Annexin V/PI-positive cells, NCI-N87, 1.0 µg/ml mAb (%)
Answers are plain numbers, in %.

murine monoclonal antibody 2D11 (antibody, mouse IgG1, V domains shown, Mouse IgG1, kappa, from hybridoma; also called m322-2D11.19) VH: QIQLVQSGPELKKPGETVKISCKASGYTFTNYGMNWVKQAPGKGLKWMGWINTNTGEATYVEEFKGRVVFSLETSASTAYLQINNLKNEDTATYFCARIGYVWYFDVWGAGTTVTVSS VL: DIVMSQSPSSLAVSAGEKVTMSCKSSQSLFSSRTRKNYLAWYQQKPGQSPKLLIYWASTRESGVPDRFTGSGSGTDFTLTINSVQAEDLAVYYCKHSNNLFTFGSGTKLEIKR; 45
murine monoclonal antibody 6D11 (antibody, mouse IgG1, V domains shown, Mouse IgG1, kappa, from hybridoma; also called m338-6D11.8) VH: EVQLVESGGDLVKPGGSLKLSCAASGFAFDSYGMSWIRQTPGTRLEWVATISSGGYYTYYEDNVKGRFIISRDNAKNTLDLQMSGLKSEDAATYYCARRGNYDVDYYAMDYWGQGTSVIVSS VL: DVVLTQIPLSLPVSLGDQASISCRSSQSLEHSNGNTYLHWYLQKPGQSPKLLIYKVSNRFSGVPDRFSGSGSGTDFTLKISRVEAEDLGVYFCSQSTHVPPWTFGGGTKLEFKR; 41

Attention now turns to another entry.
Can you share its % Annexin V/PI-positive cells, NCI-N87, 1.0 µg/ml mAb? I mean this binder: murine monoclonal antibody 12H8 (antibody, mouse IgG2a, V domains shown, Mouse IgG2a, kappa, from hybridoma; also called m342-12H8.3; m12H8) VH: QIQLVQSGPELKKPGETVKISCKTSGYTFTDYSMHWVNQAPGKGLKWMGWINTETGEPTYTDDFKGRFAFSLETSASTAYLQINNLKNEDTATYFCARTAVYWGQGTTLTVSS VL: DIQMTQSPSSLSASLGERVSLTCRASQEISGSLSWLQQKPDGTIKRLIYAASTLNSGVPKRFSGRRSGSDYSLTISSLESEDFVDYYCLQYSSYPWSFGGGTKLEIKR
67
